Data provenance: patent US4705799A

system: Escherichia coli; experiment: In vivo efficacy of compounds administered subcutaneously in mouse intraperitoneal infections; details: sc, 168 h; mouse i.p. Escherichia coli infection; subcutaneous; dosed at infection and 4 h post-infection; 7 days; read-out: ED50 (50 percent effective dose)
Measured endpoint: ED50 (mg/kg)
Report the value in mg/kg with no unit label.

{"Compound": "CC(=O)c1ccc(N2CC(CNC=O)OC2=O)cc1 (centres unmarked) [Example 173]", "Units label": "mg/kg", "ED50": 79}
{"Compound": "CSCc1ccc(N2CC(CNC(C)=O)OC2=O)cc1 (single isomer, unassigned) [Example 163]", "Units label": "mg/kg", "ED50": 33.3}
{"Compound": "CC(=O)c1ccc(N2CC(CNC(N)=O)OC2=O)cc1 (centres unmarked) [Example 177]", "Units label": "mg/kg", "ED50": 34}
{"Compound": "CC(=O)c1ccc(N2CC(CNC(=O)CN=[N+]=[N-])OC2=O)cc1 (centres unmarked) [Example 175]", "Units label": "mg/kg", "ED50": 73.5}
{"Compound": "CC(=O)NCC1CN(c2ccc(C(C)O)cc2)C(=O)O1 (single isomer, unassigned) [Example 130]", "Units label": "mg/kg", "ED50": 26.3}

**Q:** Give ED50 (Escherichia coli) of the following compound: CC(=O)NCC1CN(c2ccc(S(=O)(=O)N=[N+]=[N-])cc2)C(=O)O1 (single isomer, unassigned) [Example 114]
**A:** 12.5

**Q:** Give ED50 (Escherichia coli) of the following compound: CC(=O)NCC1CN(c2ccc(C(C)=O)cc2)C(=O)O1 (single isomer, unassigned) [Example 129]
**A:** 14

**Q:** Give ED50 (Escherichia coli) of the following compound: CCC(=O)NCC1CN(c2ccc(C(C)=O)cc2)C(=O)O1 (single isomer, unassigned) [Example 171]
**A:** 21.6

**Q:** Give ED50 (Escherichia coli) of the following compound: CS(=O)(=O)c1ccc(N2CC(CNC(=O)C(Cl)Cl)OC2=O)cc1 (single isomer, unassigned) [Example 22]
**A:** 11.8

**Q:** Give ED50 (Escherichia coli) of the following compound: CC(=O)NCC1CN(c2ccc([N+](=O)[O-])cc2)C(=O)O1 (single isomer, unassigned) [Example 146]
**A:** 40
